Data provenance is patent US6358995B1.

Reported values of Transcription accelerating activity Relative ED30 RAR-β for individual entries
Target: RAR-β (Homo sapiens)
Construct: expressed in transfected cells; host or cells: COS-1 (African green monkey kidney cells), transient lipofection
Sequence (P10826 1-455): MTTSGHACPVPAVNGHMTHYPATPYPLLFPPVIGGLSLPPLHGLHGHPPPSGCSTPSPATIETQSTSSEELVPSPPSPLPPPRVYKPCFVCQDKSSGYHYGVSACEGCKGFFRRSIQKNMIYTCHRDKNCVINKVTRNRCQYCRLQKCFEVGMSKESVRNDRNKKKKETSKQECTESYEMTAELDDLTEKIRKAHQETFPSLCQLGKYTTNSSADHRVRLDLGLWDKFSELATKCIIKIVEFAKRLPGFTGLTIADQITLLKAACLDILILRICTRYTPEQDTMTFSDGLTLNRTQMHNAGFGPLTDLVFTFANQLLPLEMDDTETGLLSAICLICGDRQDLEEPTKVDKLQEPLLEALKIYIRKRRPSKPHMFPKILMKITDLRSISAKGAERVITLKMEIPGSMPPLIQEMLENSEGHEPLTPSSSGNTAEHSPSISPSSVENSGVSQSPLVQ
Test: Transcription accelerating activity through RARs (PLAP reporter in COS-1 cells)
Assay type: cell-based
Conditions: relative to ED30 of all-trans retinoic acid = 1, ED30 = concentration giving 30% of activity induced by 1 μM all-trans retinoic acid

Sample records with Transcription accelerating activity Relative ED30 RAR-β:
Cc1cc(C)c2oc(-c3ccc(-c4ccc(C(=O)O)cc4)[nH]3)cc2c1 [Example 50] ... 280
O=C(O)c1ccc(-c2ccc(-c3cc4c(Cl)cccc4o3)[nH]2)cc1 [Example 60] ... 110
O=C(O)c1ccc(-c2ccc(-c3cc4c(F)ccc(Cl)c4o3)[nH]2)cc1 [Example 42] ... 91
Cc1ccc(C)c2oc(-c3ccc(-c4ccc(C(=O)O)cc4)[nH]3)cc12 [Example 13] ... 13

Jot down Transcription accelerating activity Relative ED30 RAR-β (RAR-β (Homo sapiens)) of Cc1ccc(Cl)c2oc(-c3ccc(-c4ccc(C(=O)O)cc4)[nH]3)cc12 [Example 53] .
26

Jot down Transcription accelerating activity Relative ED30 RAR-β (RAR-β (Homo sapiens)) of Cc1ccc(C)c2sc(-c3ccc(-c4ccc(C(=O)O)cc4)[nH]3)cc12 [Example 77] .
65

Jot down Transcription accelerating activity Relative ED30 RAR-β (RAR-β (Homo sapiens)) of Cc1ccc(F)c2cc(-c3ccc(-c4ccc(C(=O)O)cc4)[nH]3)oc12 [Example 110] .
210

Jot down Transcription accelerating activity Relative ED30 RAR-β (RAR-β (Homo sapiens)) of CCc1cccc2ccc(-c3ccc(-c4ccc(C(=O)O)cc4)[nH]3)cc12 [Example 7] .
36

Jot down Transcription accelerating activity Relative ED30 RAR-β (RAR-β (Homo sapiens)) of Cc1cccc2c1C=C(c1ccc(-c3ccc(C(=O)O)cc3)[nH]1)CO2 [Example 129] .
1050
